The following compounds are listed with their measured % HCV-NS5BΔ21 inhibition values.
# subject of test: HCV-NS5BΔ21 RdRp genotype 1b (strain J4) (Hepatitis C virus genotype 1b, UniProt O92972)
# Sequence (O92972 2420-2989, stated change not applied): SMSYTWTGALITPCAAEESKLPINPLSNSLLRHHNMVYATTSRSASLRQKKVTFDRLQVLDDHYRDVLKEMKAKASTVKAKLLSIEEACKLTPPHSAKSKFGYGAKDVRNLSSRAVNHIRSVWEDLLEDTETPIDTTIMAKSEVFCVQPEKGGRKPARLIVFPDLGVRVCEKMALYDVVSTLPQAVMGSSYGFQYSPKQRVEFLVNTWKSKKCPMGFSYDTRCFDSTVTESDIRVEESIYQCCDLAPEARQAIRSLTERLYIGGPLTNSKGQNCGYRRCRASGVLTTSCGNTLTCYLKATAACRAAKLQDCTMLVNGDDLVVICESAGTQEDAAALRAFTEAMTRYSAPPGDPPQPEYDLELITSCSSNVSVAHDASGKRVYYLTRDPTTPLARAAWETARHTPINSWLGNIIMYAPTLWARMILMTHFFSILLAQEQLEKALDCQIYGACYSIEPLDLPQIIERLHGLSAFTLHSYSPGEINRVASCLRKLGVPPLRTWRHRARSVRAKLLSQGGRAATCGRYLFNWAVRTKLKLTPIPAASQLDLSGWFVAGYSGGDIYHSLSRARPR
# assay name: biochemical
# Design: His6 (N); made in house; host or cells: Escherichia coli C41(DE3)
# stated conditions: 20 μM compound
# output: number + unit

1) O=c1cc(-c2ccc(O)c(O)c2)oc2c(O)c(O)ccc12 [3’.4’.7.8-Tetrahydroxyflavone] ... 30.9%
2) O=c1cc(-c2ccccc2)oc2cc(O)c(O)cc12 [6.7 Dihydroxyflavone] ... 37.4%
3) O=c1c(O[C@@H]2O[C@H](CO)[C@@H](O)[C@H](O)[C@H]2O)c(-c2ccc(O)c(O)c2)oc2cc(O)cc(O)c12 [Quercetin-3-O glucopyranoside] ... 25.9%

Moving on to another compound below.
Quick one: % HCV-NS5BΔ21 inhibition of `COc1cc(O)c2c(=O)c(OC)c(-c3ccc(OC)c(OC)c3)oc2c1` ?
14.5%

* * *

# subject of test: HCV-NS5BΔ21 RdRp genotype 1a (strain H77) (Hepatitis C virus genotype 1a)
# Construct: His6 (N)
# Sequence (P27958 2421-2990, stated change not applied): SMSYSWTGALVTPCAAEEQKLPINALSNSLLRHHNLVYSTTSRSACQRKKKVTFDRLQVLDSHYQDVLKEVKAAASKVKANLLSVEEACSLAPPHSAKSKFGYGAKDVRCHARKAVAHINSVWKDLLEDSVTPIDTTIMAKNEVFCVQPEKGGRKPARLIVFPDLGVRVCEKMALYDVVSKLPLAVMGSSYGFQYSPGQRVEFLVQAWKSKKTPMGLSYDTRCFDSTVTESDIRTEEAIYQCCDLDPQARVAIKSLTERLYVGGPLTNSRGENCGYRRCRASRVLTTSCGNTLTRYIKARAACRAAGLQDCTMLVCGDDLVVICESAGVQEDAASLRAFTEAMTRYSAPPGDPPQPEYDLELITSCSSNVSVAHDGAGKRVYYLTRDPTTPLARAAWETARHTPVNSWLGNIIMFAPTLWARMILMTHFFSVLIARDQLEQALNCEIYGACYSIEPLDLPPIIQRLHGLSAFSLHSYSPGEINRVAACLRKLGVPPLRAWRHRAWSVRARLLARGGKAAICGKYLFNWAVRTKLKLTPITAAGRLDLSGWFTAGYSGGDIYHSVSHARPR
# assay name: cell-free HCV-NS5BΔ21 polymerase assay, genotype 1a (H77)
measure name: pIC50
pIC50 here: minus log base 10 of the concentration, concentration in moles per litre.

Would you kindly share the measured pIC50 for `O=c1c(O)c(-c2ccc(O)c(O)c2)oc2cc(O)c(O)c(O)c12` ?
5.55

* * *

# subject of test: HCV-NS5BΔ21 RdRp genotype 1b (strain J4) (Hepatitis C virus genotype 1b)
# assay name: biochemical
# Parameters: His6 (N); made in house; host or cells: Escherichia coli C41(DE3)
# stated conditions: 20 μM compound
Please mark 1 if the recorded inhibition at 20 µM is equal to or greater than 70%, and -1 if it falls below.

1) O=c1c(O)c(-c2ccc(O)c(O)c2)oc2c(O)c(O)cc(O)c12 [Gossypetin] ... 1
2) O=C1c2ccc(O)cc2O[C@H](c2ccc(O)c(O)c2)[C@H]1O [Fustin] ... -1
3) C[C@@H]1O[C@@H](OC[C@H]2O[C@@H](Oc3c(-c4ccc(O)c(O)c4)oc4cc(O)cc(O)c4c3=O)[C@H](O)[C@@H](O)[C@@H]2O)[C@H](O)[C@H](O)[C@H]1O [Rutin] ... -1

Dear colleague, could you confirm whether O=C1CC(c2ccccc2)Oc2ccccc21 (stereo not drawn) [Flavanone] has inhibition at 20 µM at or above 70%?
-1

Hi team, for O=c1c(O)c(-c2cc(O)c(O)c(O)c2)oc2cc(O)ccc12 [Robinetin] , is the recorded inhibition at 20 µM at or above 70%?
-1

Does inhibition at 20 µM meet or surpass 70% for O=c1c(O)c(-c2ccccc2)oc2cc(O)cc(O)c12 [Galangin] ?
1

Dear colleague, could you confirm whether COc1cc(-c2oc3cc(O)cc(O)c3c(=O)c2O)ccc1O [Isorhamnetin] has inhibition at 20 µM at or above 70%?
1

* * *

# subject of test: HCV-NS5BΔ21 RdRp genotype 1b (strain J4) (Hepatitis C virus genotype 1b)
# assay name: biochemical
# Parameters: His6 (N); made in house; host or cells: Escherichia coli C41(DE3)
# stated conditions: 20 μM compound; no treatment control slope 62.0
measure name: Slope of fluorescence increase
Just the number, please.

1) O=c1c(O)c(-c2cc(O)c(O)c(O)c2)oc2cc(O)cc(O)c12 [Myricetin] ... 12.9
2) O=C1CC(c2ccccc2)Oc2ccccc21 (stereo not drawn) [Flavanone] ... 57.4
3) O=c1c(O[C@@H]2O[C@H](CO)[C@H](O)[C@H](O)[C@H]2O)c(-c2ccc(O)c(O)c2)oc2cc(O)cc(O)c12 [Hyperoside] ... 44.6
4) O=c1cc(-c2ccccc2)oc2c(O)c(O)ccc12 [7.8 Dihydroxyflavone] ... 42.9
5) O=c1cc(-c2ccccc2)oc2c(O)c(O)cc(O)c12 [5.7.8-Trihydroxyflavone] ... 32.6
6) O=c1c(O)c(-c2ccc(O)c(O)c2)oc2cc(O)cc(O)c12 [Quercetin] ... 10.1
7) O=c1cc(-c2ccc(O)cc2)oc2cc(O)ccc12 [7.4’-Dihydroxyflavone] ... 46.1
8) O=c1c(O)c(-c2ccccc2)oc2cc(O)cc(O)c12 [Galangin] ... 11.9

Could you now consider this next molecule?
Given COc1cc(-c2oc3cc(O)cc(O)c3c(=O)c2O)ccc1O [Isorhamnetin] , state its recorded Slope of fluorescence increase.
13.9
